molecular target: β1c (Homo sapiens, UniProt P28072+Q99436); construct: protease activity associated with the proteasome complex in cultured cells; endogenous in cells; assay: Cell-Based Proteasome Activity/Selectivity Assay (Ramos cells), substrate (LLE)2 Rh110; conditions: highest concentration tested 20 μM
Readout: IC50 (µM)

Look over these answered cases.
Mol smiles: COCCNC(=O)C(=O)[C@H](Cc1ccccc1)NC(=O)[C@H](Cc1c[nH]c2ccccc12)NC(=O)[C@H](C)NC(=O)OCc1ccccc1
IC50 (µM): 17.5
//
Mol smiles: C[C@H](NC(=O)OCc1ccccc1)C(=O)N[C@@H](Cc1c[nH]c2ccccc12)C(=O)N[C@@H](Cc1ccccc1)C(=O)C(=O)NCc1ccccn1
IC50 (µM): 13.5
//
Mol smiles: COc1ccc(C[C@H](NC(=O)[C@H](C)NC(=O)CCc2ccnn2C)C(=O)N[C@@H](Cc2ccccc2)C(=O)C(=O)NCc2ccccc2)cc1
IC50 (µM): 18.4
//
Mol smiles: CCCC[C@H](NC(=O)[C@H](CCS(C)(=O)=O)NC(=O)[C@H](C)NC(=O)C1=C(C)c2ccccc2C1)C(=O)C(=O)NCc1ccccc1
IC50 (µM): 8.43

P. CCCC[C@H](NC(=O)[C@H](CC(C)C)NC(=O)[C@@H](NC(=O)CN1CCOCC1)C(C)(C)C)C(=O)C(=O)NCc1ccccc1
Q. CNC(=O)C(=O)[C@H](Cc1ccccc1)NC(=O)[C@H](Cc1c[nH]c2ccccc12)NC(=O)[C@H](C)NC(=O)OCc1ccccc1
Input: Parameter check: reported IC50 is higher for which label, P or Q ? API: response body contains the label of the selected item.
Output: Q
(Q: 13.1 µM, P: 8.7 µM)

---

target: β1i (Homo sapiens, UniProt P28065+P40306); construct: protease activity associated with the proteasome complex in cultured cells; endogenous in cells; assay: Cell-Based Proteasome Activity/Selectivity Assay (Ramos cells), substrate (PAL)2Rh110; details: highest concentration tested 20 μM
Readout: IC50 (µM)

Mol smiles: CCCC[C@H](NC(=O)[C@H](CC(C)C)NC(=O)[C@@H](NC(=O)CN1CCOCC1)C(C)(C)C)C(=O)C(=O)NCc1ccccc1
IC50 (µM): 0.661

1. COc1ccc(C[C@H](NC(=O)[C@H](C)NC(=O)c2cc3ncccc3n2C)C(=O)N[C@@H](Cc2ccccc2)C(=O)C(=O)NCc2ccccc2)cc1
2. C[C@H](NC(=O)c1cc2ccccc2n1C)C(=O)N[C@@H](Cc1ccccc1)C(=O)N[C@@H](Cc1ccccc1)C(=O)C(=O)NCc1ccccc1
3. COC[C@H](NC(=O)C1Cc2ccccc2C1)C(=O)N[C@@H](Cc1ccc(OC)cc1)C(=O)N[C@@H](Cc1ccccc1)C(=O)C(=O)NCc1ccccc1
4. C[C@H](NC(=O)CN1CCOCC1)C(=O)N[C@@H](Cc1c[nH]c2ccccc12)C(=O)N[C@@H](Cc1ccccc1)C(=O)C(=O)NCc1ccccc1
Input: Thanks in advance: please rank these 4 entries by IC50, highest to lowest. // list labels; follow requested order
Output: 2, 4, 1, 3

P. COc1ccc(C[C@H](NC(=O)[C@H](C)NC(=O)OCc2ccccc2)C(=O)N[C@@H](Cc2ccccc2)C(=O)C(=O)NCc2ccccc2)cc1
Q. C[C@H](NC(=O)C1Cc2ccccc2C1)C(=O)N[C@@H](CCc1ccccc1)C(=O)N[C@@H](Cc1ccccc1)C(=O)C(=O)NCc1ccccc1
R. C[C@H](NC(=O)N1Cc2ccccc2C1)C(=O)N[C@@H](Cc1ccccc1)C(=O)N[C@@H](Cc1ccccc1)C(=O)C(=O)NCc1ccccc1
S. CCCC[C@H](NC(=O)[C@H](Cc1c[nH]c2ccccc12)NC(=O)[C@H](C)NC(=O)OCc1ccccc1)C(=O)C(=O)NCc1ccccc1
Input: Ascending sort, IC50. // list labels; follow requested order
Output: S, P, Q, R

P. C[C@H](NC(=O)C1Cc2ccccc2C1)C(=O)N[C@@H](Cc1c[nH]c2ccccc12)C(=O)N[C@@H](Cc1ccccc1)C(=O)C(=O)NCc1ccccc1
Q. CCCC[C@H](NC(=O)[C@H](Cc1c[nH]c2ccccc12)NC(=O)[C@H](C)NC(=O)c1cc(C)on1)C(=O)C(=O)NCc1ccccc1
Input: I'm curious, which of these has a smaller IC50 number: P or Q ? API: response body contains the label of the selected item.
Output: Q
(Q: 0.091 µM, P: 0.441 µM)

a. CCCC[C@H](NC(=O)[C@H](Cc1c[nH]c2ccccc12)NC(=O)[C@H](C)NC(=O)C1=C(C)c2ccccc2C1)C(=O)C(=O)N[C@H](C)c1ccccc1
b. CCCC[C@H](NC(=O)[C@H](CCS(C)(=O)=O)NC(=O)[C@H](C)NC(=O)C1=C(C)c2ccccc2C1)C(=O)C(=O)NCc1ccccc1
Input: I'm curious, which of these has a smaller IC50 number: a or b ? API: response body contains the label of the selected item.
Output: b
(b: 0.21 µM, a: 0.504 µM)
